Tested on: NCI-H847 (Small Cell Lung Carcinoma)
Test Summary: combination Emax (second highest fraction inhibited in the dose matrix, 72 h); higher = more inhibition; extreme values may be limits of the assay
Assignment: determine reported combination Emax for the given molecules.
No unit in the answer, please; the number alone is enough.

Field request: combination Emax | item: CC1(C)CCC(CN2CCN(c3ccc(C(=O)NS(=O)(=O)c4ccc(NCC5CCOCC5)c([N+](=O)[O-])c4)c(Oc4cnc5[nH]ccc5c4)c3)CC2)=C(c2ccc(Cl)cc2)C1 [Venetoclax] + CCN(CCO)CCCOc1ccc2c(Nc3cc(CC(=O)Nc4cccc(F)c4)[nH]n3)ncnc2c1 [AZD2811] (first compound max 1 µM, 7x7, partner max 1 µM)
1

Entry to check: CCc1c2c(nc3ccc(O)cc13)-c1cc3c(c(=O)n1C2)COC(=O)[C@]3(O)CC [SN-38] + CN(C)CCCOc1ccc(-c2ccc3ncc4c(c3c2)n(C2CCOCC2)c(=O)n4C)cn1 [AZD0156] (first compound max 0.3 µM, 7x7, partner max 1 µM)
0.976

Entry to check: CCN(CCO)CCCOc1ccc2c(Nc3cc(CC(=O)Nc4cccc(F)c4)[nH]n3)ncnc2c1 [AZD2811] + O=C(c1cc(Cc2n[nH]c(=O)c3ccccc23)ccc1F)N1CCN(C(=O)C2CC2)CC1 [Olaparib] (first compound max 1 µM, 7x7, partner max 10 µM)
0.956

Entry to check: C=CCn1c(=O)c2cnc(Nc3ccc(N4CCN(C)CC4)cc3)nc2n1-c1cccc(C(C)(C)O)n1 [AZD1775] + C1CN(CCC1(C(=O)N[C@@H](CCO)C2=CC=C(C=C2)Cl)N)C3=NC=NC4=C3C=CN4 [Capivasertib] (first compound max 3 µM, partner max 3 µM)
1

Entry to check: CC1(C)CCC(CN2CCN(c3ccc(C(=O)NS(=O)(=O)c4ccc(NCC5CCOCC5)c([N+](=O)[O-])c4)c(Oc4cnc5[nH]ccc5c4)c3)CC2)=C(c2ccc(Cl)cc2)C1 [Venetoclax] + COc1cc(Nc2ncc3c(n2)-c2ccc(Cl)cc2C(c2c(F)cccc2OC)=NC3)ccc1C(=O)O [Alisertib] (first compound max 1 µM, 7x7, partner max 10 µM)
1

Entry to check: CC1(C)CCC(CN2CCN(c3ccc(C(=O)NS(=O)(=O)c4ccc(NCC5CCOCC5)c([N+](=O)[O-])c4)c(Oc4cnc5[nH]ccc5c4)c3)CC2)=C(c2ccc(Cl)cc2)C1 [Venetoclax] + C[C@@H]1COCCN1C2=NC(=NC(=C2)C3(CC3)[S@](=N)(=O)C)C4=C5C=CNC5=NC=C4 [AZD6738] (first compound max 1 µM, 7x7, partner max 10 µM)
0.999

These measurements were taken from the supplement of paper PMC11061612.
